test system: NCI-H226; assay: Antiproliferative activity against human NCI-H226 cells assessed as inhibition of cell growth at 10 uM incubated for 48 hrs by MTT assay relative to control; assay type: functional; details: NCI-H226, 48 h
reportedProperty: inhibition at 10 µM (%)
Answer with a number only, understood to be in %.

>>> reportedmeasurement("COc1ccc(Nc2cc(NC(=O)Nc3c(Cl)cccc3Cl)ncn2)cc1C")
50
>>> reportedmeasurement("COc1cc(Nc2cc(NC(=O)Nc3c(Cl)cccc3Cl)ncn2)cc(OC)c1")
60
>>> reportedmeasurement("COc1cc(NC(=O)Nc2cc(Nc3cc(F)ccc3OC)ncn2)cc(OC)c1")
37.7
>>> reportedmeasurement("COc1cc(NC(=O)Nc2cc(Nc3ccc(OC)c(I)c3)ncn2)cc(OC)c1")
40.1
>>> reportedmeasurement("CCc1ccc(Nc2cc(NC(=O)Nc3c(Cl)cccc3Cl)ncn2)cc1")
39.5
>>> reportedmeasurement("O=C(Nc1cc(Nc2ccc(F)c(Cl)c2)ncn1)Nc1c(Cl)cccc1Cl")
47.3
>>> reportedmeasurement("CCc1cccc(Nc2cc(NC(=O)Nc3cc(OC)cc(OC)c3)ncn2)c1")
36.7
>>> reportedmeasurement("COc1ccc(Br)cc1Nc1cc(NC(=O)Nc2c(Cl)cccc2Cl)ncn1")
33

Task: Give the value of inhibition at 10 µM reported for the following: `COc1cc(NC(=O)Nc2cc(Nc3ccc(F)c(Cl)c3)ncn2)cc(OC)c1`
Output: 36.7

Task: Give the value of inhibition at 10 µM reported for the following: `O=C(Nc1cccc(Nc2cc(Nc3cccc(C(F)(F)F)c3)ncn2)c1)C1CC1`
Output: 52.7
